assay: Cytotoxicity against human HuH7 cells; assay type: cell-based, Huh-7
readout-kind: CC50 (µM)

mol-smiles | relation | recorded-number
CN1CCN(CCCNCc2cn(-c3ccc(C(F)(F)F)cc3)nc2-c2ccc(C(F)(F)F)cc2)CC1 | = | 2
COCCN1CCC(CNCc2cn(-c3ccc(F)cc3F)nc2-c2ccccc2C)CC1 | > | 20
CN1CCN(CCNCc2cn(-c3ccc(F)cc3F)nc2-c2cccc(Cl)c2)CC1 | = | 15
CN1CCN(CCNCc2cn(-c3ccc(C(F)(F)F)cc3)nc2-c2ccc(OC(F)(F)F)cc2)CC1 | = | 3
CCCN1CCC(CNCc2cn(-c3ccc([N+](=O)[O-])cc3)nc2-c2ccc(Cl)cc2)CC1 | = | 11

====

experiment: Cytotoxicity against human HuH7 cells; format: cell-based, Huh-7
CC50 listing for selected molecules.
readout-kind: CC50

mol-smiles | result
CN1CCN(CCNCc2cn(-c3ccc(F)cc3F)nc2-c2ccc(S(=O)(=O)N(C)C)cc2)CC1 | > 20 µM
CN1CCN(CCNCc2cn(-c3ccc(F)cc3F)nc2-c2ccccc2)CC1 | > 20 µM
Cc1ccccc1-c1nn(-c2ccc(F)cc2F)cc1CN1CCN(C(C)C)CC1 | > 20 µM

====

CC50 listing for selected molecules.
assay: Cytotoxicity against human HuH7 cells; assay type: cell-based, Huh-7

mol-smiles | CC50
Cc1c(CNCCN2CCN(C)CC2)c(-c2ccccc2)nn1-c1ccc(F)cc1 | > 20 µM
COc1ccc(-n2cc(CNCCN3CCN(C)CC3)c(-c3ccccc3C)n2)cc1 | > 20 µM
CN1CCN(CCNCc2cn(-c3ccc(F)cc3F)nc2C(C)(C)C)CC1 | > 20 µM
Cc1ccccc1-c1nn(-c2ccc(F)cc2F)cc1CN1CCC(N2CCCCC2)CC1 | > 20 µM
Cc1ccccc1-c1nn(-c2ccc(F)cc2F)cc1CNCCCCO | > 20 µM
Cc1ccc(-c2nn(-c3ccc(F)cc3F)cc2CNCCN2CCN(C)CC2)cc1 | > 20 µM
CN1CCN(CCNCc2cc(-c3ccccc3)nn2-c2ccc(F)cc2)CC1 | > 20 µM
CCN(CC)CCCNCc1cn(-c2ccc(F)cc2F)nc1-c1ccccc1C | > 20 µM
CN1CCN(CCNCc2cn(-c3ccc(F)cc3F)nc2C2CCCCC2)CC1 | > 20 µM
Cc1ccccc1-c1nn(C(C)C)cc1CNCCN1CCN(C)CC1 | > 20 µM
COc1ccc(-c2nn(-c3ccc(F)cc3F)cc2CNCCN2CCN(C)CC2)cc1 | > 20 µM
CN1CCN(CCNCc2cn(-c3ccc(F)cc3F)nc2-c2ccc(N(C)C)cc2)CC1 | > 20 µM
Cc1ccccc1-c1nn(-c2ccc(N)cc2)cc1CNCCN1CCN(C)CC1 | > 20 µM
Cc1ccccc1-c1nn(-c2ccc(F)cc2F)cc1CNCCN1CCN(C)CC1 | > 20 µM
CN1CCN(CCCNCc2cn(-c3ccc(C(F)(F)F)cc3)nc2-c2ccc(OC(F)(F)F)cc2)CC1 | 2.3 µM
Cc1ccccc1-c1nn(-c2ccc(Br)cc2)cc1CNCCN1CCN(C)CC1 | 9.6 µM
Cc1ccccc1CNc1nn(-c2ccc(F)cc2F)cc1CNCCN1CCN(C)CC1 | > 20 µM
CCCN1CCC(CNCc2cn(-c3ccc(F)cc3F)nc2-c2ccccc2C)CC1 | > 20 µM
CN1CCN(CCNCc2cn(-c3ccc(C(F)(F)F)cc3)nc2-c2ccc(Cl)cc2)CC1 | 3 µM
CN1CCN(CCNCc2cn(-c3ccc([N+](=O)[O-])cc3)nc2-c2ccc(C(F)(F)F)cc2)CC1 | 3.2 µM
Cc1ccccc1-c1nn(-c2ccc(F)cc2)cc1CNCCN1CCN(C)CC1 | > 20 µM
CN1CCN(CCNCc2cn(-c3ccc([N+](=O)[O-])cc3)nc2-c2ccc(OC(F)(F)F)cc2)CC1 | 4.4 µM
Cc1ccccc1-c1nn(-c2ccc(F)cc2F)cc1CNCCCN1CCN(C)CC1 | > 20 µM
Cc1ccccc1-c1nn(-c2ccc(F)cc2F)cc1CN1CCN(c2ccccc2)CC1 | > 20 µM
Cc1ccccc1-c1nn(-c2cc(F)ccc2F)cc1CNCCN1CCN(C)CC1 | > 20 µM
CN1CCN(CCNC(=O)c2cn(-c3ccc(F)cc3F)nc2-c2ccccc2Cl)CC1 | > 20 µM
Cc1ccccc1-c1nn(-c2ccc(F)cc2F)cc1CNC1CCN(S(C)(=O)=O)CC1 | > 20 µM
CN1CCN(CCCNCc2cn(-c3ccc([N+](=O)[O-])cc3)nc2-c2ccc(C(F)(F)F)cc2)CC1 | 4.9 µM
Cc1ccccc1-c1nn(-c2ccc(OC(F)(F)F)cc2)cc1CNCCN1CCN(C)CC1 | 17 µM
